system: KRAS G12C-dependent Ba/F3 cells; test: Ba/F3 proliferation assay, KRAS G12C; assay type: cell-based; conditions: Mus musculus, BaF3, 72 h, AlamarBlue
pIC50: −log10 of the molar value.
Attribute measured: pIC50

Some molecules with recorded pIC50:
| Molecule | Tested on | pIC50 |
| --- | --- | --- |
| C[C@H](Oc1cc(-c2cnn(C)n2)nc(-c2noc3c2CCC[C@@]32CCCc3sc(N)c(C#N)c32)n1)[C@@H]1C[C@@H](F)CN1C [II-28] | KRAS G12C-dependent Ba/F3 cells | 7.46 |
| C[C@H](Oc1cc(-n2ccncc2=O)nc(-c2noc3c2CCC[C@@]32CCCc3sc(N)c(C#N)c32)n1)[C@@H]1CCCN1C [II-116] | KRAS G12C-dependent Ba/F3 cells | 8.22 |
| C[C@H]1CNCCCN1c1cc(-n2ccnc2)nc(-c2noc3c2CCC[C@@]32CCCc3sc(N)c(C#N)c32)n1 [II-142] | KRAS G12C-dependent Ba/F3 cells | 5.66 |
| C[C@H](Oc1cc(-n2ccc(C(=O)N[C@H]3CCOC3)n2)nc(-c2onc3c2CCC[C@@]32CCCc3sc(N)c(C#N)c32)n1)[C@@H]1CCCN1C [I-57] | KRAS G12C-dependent Ba/F3 cells | 9.00 |
| Cc1nccn1-c1cc(O[C@@H](C)[C@@H]2CCCN2C)nc(-c2noc3c2CCC[C@@]32CCCc3sc(N)c(C#N)c32)n1 [II-79] | KRAS G12C-dependent Ba/F3 cells | 7.62 |

I: C[C@H](Oc1cc(-n2ccc(-c3cn([C@@H]4CCOC4)nn3)n2)nc(-c2noc3c2CCC[C@@]32CCCc3sc(N)c(C#N)c32)n1)[C@@H]1CCCN1C [II-211]
II: C[C@H](Oc1cc(N2C[C@H](C)NC3(CC3)C2)nc(-c2noc3c2CCC[C@@]32CCCc3sc(N)c(C#N)c32)n1)[C@@H]1C[C@@H](F)CN1C [II-18]
Lab note: record which item had the higher pIC50, I or II . Give the label of your selection.
I

I: C[C@H](Oc1cc([C@H]2CCOC2)nc(-c2noc3c2CCC[C@@]32CCCc3sc(N)c(C#N)c32)n1)[C@@H]1CCCN1C [II-88]
II: CC(C)N1CCCN(c2cc(-n3ccnc3)nc(-c3noc4c3CCC[C@@]43CCCc4sc(N)c(C#N)c43)n2)[C@@H](C)C1 [II-169]
Would you kindly point out which of I and II has the smaller pIC50 figure? Please identify the chosen entry by its label.
II

P: C[C@H](Oc1cc(-n2cc3ccn([C@@H]4CCOC4)c(=O)c3n2)nc(-c2noc3c2CCC[C@@]32CCCc3sc(N)c(C#N)c32)n1)[C@@H]1CCCN1C [II-203]
Q: C[C@H](Oc1cc(-c2cncnc2)nc(-c2noc3c2CCC[C@@]32CCCc3sc(N)c(C#N)c32)n1)[C@@H]1CCCN1C [II-82]
Higher pIC50: P or Q ? Pick one and reply with its label.
P
(P: 8.22, Q: 7.09)

A: C[C@H](Oc1cc(-c2cc[nH]n2)nc(-c2noc3c2CCC[C@@]32CCCc3sc(N)c(C#N)c32)n1)[C@@H]1CCCN1C [II-71]
B: C[C@H](Oc1cc([C@@H]2CCOC2)nc(-c2noc3c2CCC[C@@]32CCCc3sc(N)c(C#N)c32)n1)[C@@H]1CCCN1C [II-94]
For the pair A and B , which entry has the numerically smaller recorded pIC50? Reply briefly: the label of your chosen item.
A
